tested on: Lolium perenne (LOLPE); assay: Post-emergence herbicidal activity, glasshouse pot test; assay type: in vivo; details: 312 h, rate 250 g/ha, evaluated after 13 days, read-out: Post-emergence activity, LOLPE (100=total damage to plant; 0=no damage to plant)
measured.attribute: pest or weed control at 250 g/ha (%)
Only the number, expressed in %, is required.

CCc1ccc(-c2ccc(Cl)c(C(F)(F)F)c2F)cc1C1=C(O)CCC1=O [Compound T-19]; 60
CCc1ccc(-c2cc(Cl)c(Cl)cc2Cl)cc1C1=C(O)CCC1=O [Compound T-16]; 60

INPUT: Reported pest or weed control at 250 g/ha for CCc1ccc(-c2ccc(Cl)cc2C)cc1C1=C(O)CCC1=O [Compound T-4] : what is it?
OUTPUT: 30
